- measurementTarget: cloned rat kappa opioid receptors (Rattus norvegicus)
- Sequence (P34975 whole entry): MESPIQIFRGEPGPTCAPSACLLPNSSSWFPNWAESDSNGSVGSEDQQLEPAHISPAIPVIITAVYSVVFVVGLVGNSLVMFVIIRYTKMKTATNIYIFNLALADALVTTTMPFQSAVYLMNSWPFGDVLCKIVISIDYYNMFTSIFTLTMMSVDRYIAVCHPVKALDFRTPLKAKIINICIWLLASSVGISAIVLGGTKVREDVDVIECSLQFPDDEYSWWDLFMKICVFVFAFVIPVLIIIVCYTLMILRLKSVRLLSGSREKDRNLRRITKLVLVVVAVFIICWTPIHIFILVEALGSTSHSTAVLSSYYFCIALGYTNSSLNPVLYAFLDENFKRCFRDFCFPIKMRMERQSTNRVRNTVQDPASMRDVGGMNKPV
- assayMethodText: cell-based
measurementKind: IC50
Include the unit after the number when you answer.

What measured IC50 goes with CC(C)=CCN1CCC2(C)c3cc(O)ccc3CC1C2C (stereo not shown) ? 26.6 nM

Recorded values, source paper PMC8516733.
